- method notes: growth inhibitors of tim10-1 mutant yeast, primary screen, luminescence, uHTS (AID 463190);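 further: mutant grown at 25 °C; 0% = DMSO wells with yeast and 100% = wells holding no yeast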
- measurement context: S. cerevisiae tim10-1 ts strain growth, BacTiter-Glo, 24 h; at 20 µM; active compounds read high
About 7,300 (2.2%) of roughly 330,000 compounds were called active. Shown is part of a subset that was picked to be rich in actives.
metric: inhibition (%)
Your answer is read as %, so omit the unit and give the number.

Recorded inhibition, per entry:
COc1ccc(-n2cnc3cc(NCc4ccco4)ccc32)cc1 | 22
COc1ccccc1C1CCN(c2ccc([N+](=O)[O-])cn2)CC1 | 14.4
CC(C)CNS(=O)(=O)c1ccc(CCC(=O)NCc2ccc(Cl)cc2)cc1 | 8.22
COc1ccccc1C1SCCN1C(=O)c1ccc([N+](=O)[O-])cc1 (stereo unspecified) | 41.9
O=S(=O)(c1ccc(F)cc1)n1ccc(-c2cnc(-c3ccccc3)s2)n1 | 24.1
CCOc1ccc(-n2c(SCC(=O)NC3CCS(=O)(=O)C3)nnc2-c2cccnc2)cc1 (stereo unspecified) | 7.61

We next turn to a different compound, shown below.
May I ask what inhibition has been recorded for O=S(=O)(Nc1ccc(O)c2ccccc12)c1ccc(OC(F)(F)F)cc1 ?
42.5

====

The reader will find reported inhibition values listed item by item below.
- method notes: growth inhibitors of tim10-1 mutant yeast, primary screen, luminescence, uHTS (AID 463190)
- measurement context: S. cerevisiae tim10-1 ts strain growth, BacTiter-Glo, 24 h; at 20 µM; active compounds read high
Among all 330,000 compounds or so, about 7,300 (2.2%) were called active. The full list was thinned out, with actives kept by preference.
Your answer is read as %, so omit the unit and give the number.

Could you share which inhibition value was measured for COc1ccc(C(=O)Nc2ccccc2C(=O)N/N=C/c2ccc(O)c(OC)c2)cc1 ?
97

====

# key: entry, value: inhibition
- method notes: growth inhibitors of tim10-1 mutant yeast, primary screen, luminescence, uHTS (AID 463190);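 further: mutant grown at 25 °C; 0% = DMSO wells with yeast and 100% = wells holding no yeast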
- measurement context: S. cerevisiae tim10-1 ts strain growth, BacTiter-Glo, 24 h; at 20 µM; active compounds read high
Among all 330,000 compounds or so, about 7,300 (2.2%) were called active. The sample holds actives, similar compounds and a random draw of the others, so the mix is not that of the screen.
Your answer should be a plain number; it is taken to be in %.

O=C(c1ccc(CSc2ccccc2)cc1)N1CCCCCC1 | 42.3
CC1CCCCN1CC(=O)NCc1ccc2c(c1)OCO2 (stereo not drawn) | 4.67
Fc1ccc(/C=N/Nc2nc(-c3cccnc3)nc3ccccc23)cc1 | 43.3
O=C(NC(Nc1nc2ccc([N+](=O)[O-])cc2s1)(C(F)(F)F)C(F)(F)F)c1ccccc1 | 85.4
Nc1nc(CC(=O)CSc2ccc(Cl)cc2)nc(Nc2ccc(F)cc2)n1 | 1.48
COc1ccc(-c2cc(C3CCN(c4ncccc4[N+](=O)[O-])CC3)[nH]n2)cc1 | 49.2
NS(=O)(=O)c1ccc(CCNC(=O)c2ccc([N+](=O)[O-])cc2[N+](=O)[O-])cc1 | 2.98
CC(=O)NC(Cc1ccccc1)C(=O)NC1CCN(c2ncccc2[N+](=O)[O-])CC1 (stereo not drawn) | 10.4

Proceed to the following item.
Recorded inhibition of Cc1ccc(S(=O)(=O)N(Cc2cccc([N+](=O)[O-])c2)C(=O)N2CCN(C)CC2)cc1 , please.
26.5

====

- method notes: growth inhibitors of tim10-1 mutant yeast, primary screen, luminescence, uHTS (AID 463190);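 further: mutant grown at 25 °C; 0% = DMSO wells with yeast and 100% = wells holding no yeast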
- measurement context: S. cerevisiae tim10-1 ts strain growth, BacTiter-Glo, 24 h; at 20 µM; active compounds read high
Out of some 330,000 compounds screened, about 7,300 (2.2%) were called active. For the sample, actives were picked, then their nearest neighbours and some compounds at random.
metric: inhibition (%)
Numeric answer only, unit % assumed.

CSc1ccc(CN2C(=O)NC3(CCCCCC3)C2=O)cc1 | 23.7
c1ccc2c(c1)CCc1snnc1-2 | -9.47
Cc1cc(C)c([N+](=O)[O-])cc1-c1ccc(/C=N/NC(=O)c2nonc2N)o1 | -16.4

Would you mind telling me what inhibition value was observed for CN(C)CCNc1ccc(-c2n[nH]c(=O)c3ccccc23)cc1[N+](=O)[O-] ?
1.37

Let us now turn to Cc1ccc(-c2ccc(/C=C(\C#N)C(N)=S)o2)c([N+](=O)[O-])c1
57.3

Now the same for Cc1cc(-c2ccc(S(=O)(=O)N3CCN(c4cccc(C(F)(F)F)c4)CC3)s2)on1
-2.35

Please do the same for Cc1cc([N+](=O)[O-])c(-c2ccc(/C=N/n3cnnc3)o2)cc1Cl as well.
16.2

What do you have for CCOc1ccc(NC(=O)[C@H](C)NC(=O)C2CC(=O)N(c3ccc(OC)cc3)C2)cc1 (stereo not given in full) ?
-6.36

// same read-out, input: Cc1ccc2c(c1)nnc1nnc(SCC(=O)O)n12
-10.5

Do the same for CC(C)(C)OC(=O)C[C@@H]1C/C=C\C[C@@H](CC(=O)N[C@H](CO)Cc2ccccc2)C(=O)NCCOC1=O please
-5.51

====

- method notes: growth inhibitors of tim10-1 mutant yeast, primary screen, luminescence, uHTS (AID 463190);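 further: mutant grown at 25 °C; 0% = DMSO wells with yeast and 100% = wells holding no yeast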
- measurement context: S. cerevisiae tim10-1 ts strain growth, BacTiter-Glo, 24 h; at 20 µM
Screen size: about 330,000 compounds; about 7,300 (2.2%) were called active.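 How the source made its calls: active means inhibition of at least 40%; inactive means the rest.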 Many of the other results were omitted from the sample, so actives are more common in it than they were.
Your response should consist of one outcome taken from active, inactive

Illustrative cases are given below, each with its answer.
COc1ccnc(Oc2ccccc2)n1 | inactive
COc1ccccc1N1CC(C(=O)Nc2ccc(S(=O)(=O)N3CCOCC3)cc2)CC1=O (stereo unspecified) | inactive
CCC(C(=O)NC1CCCC1)N(C(=O)Cn1nnc(-c2ccc(C)o2)n1)c1ccc(OC)c(OC)c1 (stereo unspecified) | inactive
O=C(CCc1ccccc1)Nc1ncc([N+](=O)[O-])s1 | active
CCO[C@H]1OC(C(=O)N2CCN(Cc3ccccc3)CC2)=C[C@@H](c2cn(C(C)=O)c3ccccc23)[C@@H]1CCCO | inactive
COc1ccc(/C=C(\C#N)C(=O)ONC2=NCCCCC2)cc1 | active
Oc1c(Cl)cc(Cl)c(Cl)c1Cc1c(O)c(Cl)cc(Cl)c1Cl | active
COc1ccc(N2CCN(C(=O)/C(C#N)=C/c3ccccc3)CC2)cc1 | inactive
O=C(CCn1nnnc1CN1CCOCC1)N1CCC(c2ccccc2Cl)C1 (stereo unspecified) | inactive
C/C(=N/O)c1ccc(N2C(=O)C3C4C=CC(C3C2=O)C2C3C(=O)N(c5ccc(/C(C)=N/O)cc5)C(=O)C3C42)cc1 (stereo unspecified) | inactive

Per the records of this test, what outcome belongs to CC(C)(C)c1ccc(C(=O)NCc2ccco2)cc1 ?
inactive

Same lookup for Cc1ccc(NC(=S)Nc2ncccc2C)c(C)c1 , please.
inactive

Param item: CCc1ccc(-c2cc(C(=O)NCc3ccco3)c3ccccc3n2)s1
active

Another compound: COc1cccc(CNS(=O)(=O)c2cc3c(cc2C)n(C)c(=O)c(=O)n3C)c1
inactive

// repeat for CCOC(=O)C(=Cc1ccccc1OC)C(=O)OCC and report
active

Next compound up: C#CCCCc1nc2ccccc2c(=O)n1N
inactive

Then what about the compound CC(C)CC(=O)NC(=S)Nc1ccc(F)cc1F ?
active

// next record COc1ccc([N+](=O)[O-])cc1NC(=O)CCc1ccccc1
inactive

Same thing, different compound: CC(C)c1cc(CN2CCOCC2)cc(C(C)C)c1O
inactive

Next compound: CC(C)CNC(=S)Nc1ccc(F)cc1
inactive

Again, but for Cc1cccc(Cn2cnc3c(N)c(C)c(C)cc32)c1
inactive

Next entry: O=[N+]([O-])c1ccc2oc(-c3cccc(O)c3)nc2c1
active

Entry CC(=O)Nc1nc2ccccc2n1Cc1ccc(C)cc1 please
inactive

What do we get for CSC1=N/C(=C\C=C\c2cccs2)C(=O)S1 ?
active

Query CC(C)CC(=O)NC(=S)Nc1cc(C(=O)O)ccc1Cl next
inactive

Another compound to check: CC(=O)NCCNC(=O)c1cc(-c2cccc3ccccc23)nc2ccccc12
inactive

Entry to check: CCC(C(=O)N1CCN(S(=O)(=O)c2sc(C(=O)O)c(C)c2C(=O)O)CC1)c1ccccc1 (stereo unspecified)
inactive

Now the same for O=C(O)c1cc([N+](=O)[O-])c(Nc2cccc3ccccc23)c([N+](=O)[O-])c1
inactive

And the next one, CC(C)(CCl)C(=O)Nc1ccc(Sc2ccc(F)cc2)cc1 ?
active

What do you have for CCOC(=O)C(=CNc1cccc(C)n1)C(=O)OCC ?
inactive

Also, CN(C(=O)CC1C(=O)NCCN1Cc1ccc2ccccc2c1)C1CCOCC1 (stereo unspecified) please.
inactive

Subsequent entry: CC(C)(C)NC(=O)NC(=O)COC(=O)C1c2ccccc2Oc2ccccc21
inactive

Same again, this time with Cc1ccc(S(=O)(=O)N2CCN=C2SCc2c(F)cccc2Cl)cc1
inactive

What would you report for Cc1cccc(C2=N/C(=C/c3cccs3)C(=O)O2)c1 ?
inactive

Param item: CC(=O)c1ccc(NC(=S)NC(=O)CC(C)C)cc1
inactive

Data origin, for the record: PubChem BioAssay AID463190
